MES TPE by entry:
System: rats
assay text: Maximal electroshock seizure (MES) test
Assay type: in vivo
stated conditions: ip
measured parameter: MES TPE (h)

[[record]]
molecule = "CCC(CO)NCCOc1c(C)cccc1Cl (centres unmarked) [Compound 4]"
measured_parameter = "MES TPE"
uom = "h"
endpoint_result = 0.25

[[record]]
molecule = "CC[C@@H](CO)NCCOc1c(C)cccc1Cl"
measured_parameter = "MES TPE"
uom = "h"
endpoint_result = 0.5

[[record]]
molecule = "CCC(CO)NCCOc1c(C)cccc1Cl (centres unmarked) [KM-408]"
measured_parameter = "MES TPE"
uom = "h"
endpoint_result = 0.25

[[record]]
molecule = "CC[C@H](CO)NCCOc1c(C)cccc1Cl"
measured_parameter = "MES TPE"
uom = "h"
endpoint_result = 0.25

[[record]]
molecule = "CC[C@H](CO)NCCOc1c(C)cccc1Cl.Cl"
measured_parameter = "MES TPE"
uom = "h"
endpoint_result = 0.25


---

measured on: 5-HT2B (Homo sapiens)
Sequence (P41595 whole entry): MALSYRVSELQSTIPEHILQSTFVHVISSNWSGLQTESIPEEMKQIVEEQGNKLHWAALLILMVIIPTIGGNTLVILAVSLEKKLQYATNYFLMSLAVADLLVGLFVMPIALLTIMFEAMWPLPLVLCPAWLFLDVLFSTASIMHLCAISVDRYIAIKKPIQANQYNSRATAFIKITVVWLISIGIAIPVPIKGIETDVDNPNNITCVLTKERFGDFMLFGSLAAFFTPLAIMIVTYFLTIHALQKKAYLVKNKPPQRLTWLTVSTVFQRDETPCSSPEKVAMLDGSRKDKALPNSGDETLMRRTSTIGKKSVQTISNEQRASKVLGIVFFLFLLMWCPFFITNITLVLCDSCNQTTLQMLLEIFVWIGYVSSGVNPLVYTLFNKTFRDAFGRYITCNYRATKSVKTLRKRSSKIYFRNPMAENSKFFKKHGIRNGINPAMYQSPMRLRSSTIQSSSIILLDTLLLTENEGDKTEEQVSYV
measured parameter: IC50 (nM)

[[record]]
compound = "CCC(CO)NCCOc1c(C)cccc1Cl (stereo not shown) [KM-408]"
endpoint_result = 2400


---

measured on: Ca2+ channel (L, verapamil site) (phenylalkylamine)
assay text: Radioligand binding
measured parameter: IC50 (µM)

[[record]]
compound = "CCC(CO)NCCOc1c(C)cccc1Cl (stereo not shown)"
measured_on = "Ca2+ channel (L, verapamil site) (phenylalkylamine)"
endpoint_result = 43


---

measured on: hNav1.6 sodium channel (Homo sapiens)
Construct: host or cells: CHO cells
assay text: Nav channel electrophysiology (IonWorks Quattro)
Type: cell-based
stated conditions: 10 Hz
pIC50: −log10 of the molar value.
measured parameter: pIC50

[[record]]
compound = "CCC(CO)NCCOc1c(C)cccc1Cl (stereo not shown)"
measured_parameter = "pIC50"
endpoint_result = 4.69


---

measured on: Sigma (non-selective)
assay text: Radioligand binding
Parameters: species or system rat
measured parameter: Ki (nM)

[[record]]
molecule = "CCC(CO)NCCOc1c(C)cccc1Cl (stereo not shown) [KM-408]"
measured_parameter = "Ki"
uom = "nM"
endpoint_result = 72


---

assay text: Tissue distribution
Assay type: in vivo, rats
stated conditions: male, Wistar, rat; 5 mg/kg iv, Heart
measured parameter: Cmax (ng/g)

[[record]]
compound = "CCC(CO)NCCOc1c(C)cccc1Cl (stereo not shown)"
endpoint_result = 494


---

measured on: α1 (non-selective)
assay text: Radioligand binding
pIC50: −log10 of the molar value.
measured parameter: pIC50

[[record]]
compound = "CCC(CO)NCCOc1c(C)cccc1Cl (stereo not shown) [KM-408]"
measured_on = "α1 (non-selective)"
endpoint_result = 4.92


---

measured on: D2S (Homo sapiens, UniProt P14416)
Sequence (P14416 1-414 isoform P14416-2): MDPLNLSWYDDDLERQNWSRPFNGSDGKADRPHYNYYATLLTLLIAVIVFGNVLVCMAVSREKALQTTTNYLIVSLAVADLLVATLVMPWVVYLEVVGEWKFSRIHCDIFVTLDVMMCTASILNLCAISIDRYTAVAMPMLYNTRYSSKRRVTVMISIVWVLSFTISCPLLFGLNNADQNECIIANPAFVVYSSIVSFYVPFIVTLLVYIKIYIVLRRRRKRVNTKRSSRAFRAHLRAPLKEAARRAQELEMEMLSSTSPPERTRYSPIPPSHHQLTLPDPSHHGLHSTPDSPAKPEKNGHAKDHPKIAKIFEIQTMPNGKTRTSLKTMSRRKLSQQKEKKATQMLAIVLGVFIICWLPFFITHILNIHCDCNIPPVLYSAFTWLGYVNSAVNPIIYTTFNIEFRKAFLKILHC
measured parameter: IC50 (µM)

[[record]]
molecule = "CCC(CO)NCCOc1c(C)cccc1Cl (stereo not shown)"
uom = "µM"
endpoint_result = 100


---

assay text: Pharmacokinetics in plasma
Assay type: in vivo, rats
stated conditions: male, Wistar, rat, plasma; rats, po 100 mg/kg; read-out: Vz/F
measured parameter: Vd/F (L/kg)

[[record]]
molecule = "CCC(CO)NCCOc1c(C)cccc1Cl (stereo not shown)"
uom = "L/kg"
endpoint_result = 104


---

assay text: Tissue distribution
Type: in vivo, rats
stated conditions: male, Wistar, rat; 5 mg/kg iv, Kidneys
measured parameter: MRT (min)

[[record]]
compound = "CCC(CO)NCCOc1c(C)cccc1Cl (stereo not shown)"
measured_parameter = "MRT"
endpoint_result = 25.3


---

assay text: Pharmacokinetics in plasma
Format: in vivo, rats
stated conditions: male, Wistar, rat, plasma; rats, iv 10 mg/kg
measured parameter: clearance (mL/min/kg)

[[record]]
compound = "CCC(CO)NCCOc1c(C)cccc1Cl (stereo not shown) [KM-408]"
uom = "mL/min/kg"
endpoint_result = 60


---

measured on: hNav1.2 sodium channel (Homo sapiens, UniProt Q99250)
Construct: host or cells: CHO cells
Sequence (Q99250 whole entry): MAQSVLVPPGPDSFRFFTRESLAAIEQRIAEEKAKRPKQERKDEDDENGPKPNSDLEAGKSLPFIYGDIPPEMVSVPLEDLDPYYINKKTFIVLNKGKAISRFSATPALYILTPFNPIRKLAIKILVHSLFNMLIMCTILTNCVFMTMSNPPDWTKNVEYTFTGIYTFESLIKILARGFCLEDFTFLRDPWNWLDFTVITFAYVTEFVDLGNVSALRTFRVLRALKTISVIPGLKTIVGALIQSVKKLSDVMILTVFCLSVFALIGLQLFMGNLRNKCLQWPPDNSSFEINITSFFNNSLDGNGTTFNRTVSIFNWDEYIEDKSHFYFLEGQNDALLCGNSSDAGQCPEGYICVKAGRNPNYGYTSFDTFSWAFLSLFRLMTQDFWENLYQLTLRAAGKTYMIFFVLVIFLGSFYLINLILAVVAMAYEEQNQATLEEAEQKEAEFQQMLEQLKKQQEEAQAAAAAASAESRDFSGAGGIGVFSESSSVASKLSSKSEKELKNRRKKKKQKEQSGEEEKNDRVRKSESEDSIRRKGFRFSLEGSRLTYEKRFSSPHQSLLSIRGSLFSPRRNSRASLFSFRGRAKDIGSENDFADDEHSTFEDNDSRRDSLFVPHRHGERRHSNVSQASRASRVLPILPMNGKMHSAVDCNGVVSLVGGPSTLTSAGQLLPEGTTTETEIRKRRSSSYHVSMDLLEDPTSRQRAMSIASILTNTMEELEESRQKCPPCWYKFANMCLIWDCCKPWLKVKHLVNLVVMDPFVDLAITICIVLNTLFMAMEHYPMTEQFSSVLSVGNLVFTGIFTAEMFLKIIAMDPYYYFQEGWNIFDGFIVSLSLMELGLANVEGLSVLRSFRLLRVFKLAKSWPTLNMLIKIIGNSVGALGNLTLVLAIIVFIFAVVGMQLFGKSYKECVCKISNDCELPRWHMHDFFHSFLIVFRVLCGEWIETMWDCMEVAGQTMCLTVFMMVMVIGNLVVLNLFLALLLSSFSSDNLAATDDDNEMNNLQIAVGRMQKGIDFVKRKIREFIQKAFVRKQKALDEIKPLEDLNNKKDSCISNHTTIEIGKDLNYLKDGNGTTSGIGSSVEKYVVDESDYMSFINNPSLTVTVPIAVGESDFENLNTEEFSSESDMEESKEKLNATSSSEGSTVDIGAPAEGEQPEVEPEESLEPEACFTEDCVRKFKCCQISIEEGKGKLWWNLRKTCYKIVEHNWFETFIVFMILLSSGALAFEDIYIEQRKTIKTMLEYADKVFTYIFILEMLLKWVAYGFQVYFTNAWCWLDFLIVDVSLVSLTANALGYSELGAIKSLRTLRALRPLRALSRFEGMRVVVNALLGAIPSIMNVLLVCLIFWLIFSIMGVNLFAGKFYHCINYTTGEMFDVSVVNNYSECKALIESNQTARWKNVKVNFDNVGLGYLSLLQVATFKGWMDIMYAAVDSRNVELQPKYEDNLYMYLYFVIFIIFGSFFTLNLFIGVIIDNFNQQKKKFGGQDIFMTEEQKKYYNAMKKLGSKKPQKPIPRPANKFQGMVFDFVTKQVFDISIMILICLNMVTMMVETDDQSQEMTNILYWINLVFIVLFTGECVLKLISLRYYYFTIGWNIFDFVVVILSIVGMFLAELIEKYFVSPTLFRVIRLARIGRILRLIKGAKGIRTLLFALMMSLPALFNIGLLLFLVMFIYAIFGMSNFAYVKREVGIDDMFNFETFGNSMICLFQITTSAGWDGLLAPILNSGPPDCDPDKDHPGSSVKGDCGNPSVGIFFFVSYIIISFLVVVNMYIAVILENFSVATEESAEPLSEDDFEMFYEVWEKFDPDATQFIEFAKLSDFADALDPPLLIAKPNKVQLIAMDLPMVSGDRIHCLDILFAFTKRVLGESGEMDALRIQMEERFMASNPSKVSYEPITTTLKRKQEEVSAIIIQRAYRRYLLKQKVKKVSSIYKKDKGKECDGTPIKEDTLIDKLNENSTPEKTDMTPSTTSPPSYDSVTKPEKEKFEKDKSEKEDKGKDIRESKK
assay text: Nav channel electrophysiology (IonWorks Quattro)
Type: cell-based
stated conditions: 10 Hz
measured parameter: IC50 (µM)

[[record]]
molecule = "CCC(CO)NCCOc1c(C)cccc1Cl (stereo not shown) [KM-408]"
endpoint_result = 15.6


---

measured on: 5-HT2B (Homo sapiens)
measured parameter: Ki (µM)

[[record]]
compound = "CCC(CO)NCCOc1c(C)cccc1Cl (stereo not shown)"
measured_on = "5-HT2B (Homo sapiens)"
measured_parameter = "Ki"
endpoint_result = 1.2


---

Tested on: mice
assay text: Rotarod test (neurotoxicity)
Assay type: in vivo
stated conditions: mice, ip, 0.5 h
measured parameter: Rotarod: neurotoxic at (mg/kg)

[[record]]
compound = "Cc1cccc(Cl)c1OCC(=O)NC(C)CO (centres unmarked)"
measured_on = "mice"
measured_parameter = "Rotarod: neurotoxic at"
uom = "mg/kg"
endpoint_result = 100

[[record]]
compound = "Cc1cccc(Cl)c1OCCNCC(O)c1ccccc1 (centres unmarked)"
measured_on = "mice"
measured_parameter = "Rotarod: neurotoxic at"
uom = "mg/kg"
endpoint_result = 100

[[record]]
compound = "CCC(O)CNCCOc1c(C)cccc1Cl (centres unmarked)"
measured_on = "mice"
measured_parameter = "Rotarod: neurotoxic at"
uom = "mg/kg"
endpoint_result = 100

[[record]]
compound = "Cc1cccc(Cl)c1OCC(=O)NCC(C)O (centres unmarked)"
measured_on = "mice"
measured_parameter = "Rotarod: neurotoxic at"
uom = "mg/kg"
endpoint_result = 300

[[record]]
compound = "CCC(CO)NC(=O)COc1c(C)cccc1Cl (centres unmarked)"
measured_on = "mice"
measured_parameter = "Rotarod: neurotoxic at"
uom = "mg/kg"
endpoint_result = 300

[[record]]
compound = "Cc1cccc(Cl)c1OCC(=O)N[C@H]1CC[C@H](O)CC1"
measured_on = "mice"
measured_parameter = "Rotarod: neurotoxic at"
uom = "mg/kg"
endpoint_result = 100

[[record]]
compound = "Cc1cccc(Cl)c1OCCNCC(C)O (centres unmarked)"
measured_on = "mice"
measured_parameter = "Rotarod: neurotoxic at"
uom = "mg/kg"
endpoint_result = 100

[[record]]
compound = "Cc1cccc(Cl)c1OCCN[C@@H]1CCCC[C@H]1O (relative stereo)"
measured_on = "mice"
measured_parameter = "Rotarod: neurotoxic at"
uom = "mg/kg"
endpoint_result = 100


---

assay text: Pharmacokinetics in plasma
Type: in vivo, rats
stated conditions: male, Wistar, rat, plasma; rats, iv 10 mg/kg
measured parameter: MRT

[[record]]
molecule = "CCC(CO)NCCOc1c(C)cccc1Cl (stereo not shown)"
endpoint_result = "42.3 min"


---

assay text: Pharmacokinetics in plasma
Assay type: in vivo, rats
stated conditions: male, Wistar, rat, plasma; rats, po 100 mg/kg
measured parameter: Cmax (ng/mL)

[[record]]
molecule = "CCC(CO)NCCOc1c(C)cccc1Cl (stereo not shown)"
measured_parameter = "Cmax"
endpoint_result = 573


---

assay text: Acute toxicity (LD50)
stated conditions: rat, in vivo; iv, rats
measured parameter: LD50 at 24 h

[[record]]
compound = "CCC(CO)NCCOc1c(C)cccc1Cl (stereo not shown)"
endpoint_result = "22.6 mg/kg"


---

assay text: Tissue distribution
Assay type: in vivo, rats
stated conditions: male, Wistar, rat; 5 mg/kg iv, Brain; read-out: Kp (tissue-to-plasma AUC ratio)
measured parameter: Kp

[[record]]
molecule = "CCC(CO)NCCOc1c(C)cccc1Cl (stereo not shown) [KM-408]"
endpoint_result = 0.83


---

assay text: Tissue distribution;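 further: organ homogenates in PBS analysed by HPLC after FMOC-Cl derivatization, non-compartmental analysis, Kp as tissue over plasma AUC, half-life taken as ln2 divided by λz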
Type: in vivo, rats
stated conditions: male, Wistar, rat; 5 mg/kg iv, Lungs; read-out: Kp (tissue-to-plasma AUC ratio)
measured parameter: Kp

[[record]]
molecule = "CCC(CO)NCCOc1c(C)cccc1Cl (stereo not shown)"
endpoint_result = 1.76


---

measured on: CYP2C19 (Homo sapiens)
Construct: tissue Puracyp #011; host or cells: human liver microsomes
Sequence (P33261 whole entry): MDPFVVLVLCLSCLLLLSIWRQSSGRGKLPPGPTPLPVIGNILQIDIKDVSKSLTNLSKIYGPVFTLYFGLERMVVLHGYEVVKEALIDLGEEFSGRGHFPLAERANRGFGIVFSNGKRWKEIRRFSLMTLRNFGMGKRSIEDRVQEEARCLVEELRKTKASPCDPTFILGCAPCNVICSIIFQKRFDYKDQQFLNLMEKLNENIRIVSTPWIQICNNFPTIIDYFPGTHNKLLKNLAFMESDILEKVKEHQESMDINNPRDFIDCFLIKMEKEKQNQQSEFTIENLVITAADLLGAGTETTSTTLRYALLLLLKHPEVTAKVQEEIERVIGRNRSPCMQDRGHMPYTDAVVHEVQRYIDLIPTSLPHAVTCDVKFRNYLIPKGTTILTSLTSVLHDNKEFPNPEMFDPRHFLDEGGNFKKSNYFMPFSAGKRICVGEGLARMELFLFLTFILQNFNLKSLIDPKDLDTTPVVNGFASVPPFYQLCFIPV
assay text: Human cytochrome P450 inhibition (human liver microsomes)
Type: in vitro ADME
pKi: −log10 of the molar value.
measured parameter: pKi

[[record]]
compound = "CCC(CO)NCCOc1c(C)cccc1Cl (stereo not shown)"
measured_on = "CYP2C19 (Homo sapiens)"
endpoint_result = 4.27


---

measured on: α2 (non-selective)
assay text: Radioligand binding
measured parameter: IC50 (µM)

[[record]]
molecule = "CCC(CO)NCCOc1c(C)cccc1Cl (stereo not shown)"
measured_on = "α2 (non-selective)"
measured_parameter = "IC50"
uom = "µM"
endpoint_result = 24


---

Test system: mice
assay text: Rotarod test (neurotoxicity);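 further: in vivo neurotoxicity screen run within the NIH Epilepsy Therapy Screening Program (ETSP, formerly Anticonvulsant Screening Program)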
Type: in vivo
stated conditions: mice, ip, […]
measured parameter: Rotarod TD50

[[record]]
compound = "CCC(CO)NCCOc1c(C)cccc1Cl (stereo not shown)"
measured_parameter = "Rotarod TD50"
endpoint_result = "54.99 (52.95–56.94) mg/kg"

[[record]]
compound = "CC[C@H](CO)NCCOc1c(C)cccc1Cl"
measured_parameter = "Rotarod TD50"
endpoint_result = "59.80 (43.80–74.20) mg/kg"

[[record]]
compound = "CC[C@H](CO)NCCOc1c(C)cccc1Cl.Cl"
measured_parameter = "Rotarod TD50"
endpoint_result = "54.01 (35.70–64.23) mg/kg"

[[record]]
compound = "CC[C@@H](CO)NCCOc1c(C)cccc1Cl"
measured_parameter = "Rotarod TD50"
endpoint_result = "47.7 (32.6–68.3) mg/kg"

